# System name: PIKFYVE (Homo sapiens)
# Construct: purchased Eurofins (KINOMEscan); host or cells: E. coli BL21-derived (T7 phage display) or HEK-293
# Sequence (Q9Y2I7 whole entry): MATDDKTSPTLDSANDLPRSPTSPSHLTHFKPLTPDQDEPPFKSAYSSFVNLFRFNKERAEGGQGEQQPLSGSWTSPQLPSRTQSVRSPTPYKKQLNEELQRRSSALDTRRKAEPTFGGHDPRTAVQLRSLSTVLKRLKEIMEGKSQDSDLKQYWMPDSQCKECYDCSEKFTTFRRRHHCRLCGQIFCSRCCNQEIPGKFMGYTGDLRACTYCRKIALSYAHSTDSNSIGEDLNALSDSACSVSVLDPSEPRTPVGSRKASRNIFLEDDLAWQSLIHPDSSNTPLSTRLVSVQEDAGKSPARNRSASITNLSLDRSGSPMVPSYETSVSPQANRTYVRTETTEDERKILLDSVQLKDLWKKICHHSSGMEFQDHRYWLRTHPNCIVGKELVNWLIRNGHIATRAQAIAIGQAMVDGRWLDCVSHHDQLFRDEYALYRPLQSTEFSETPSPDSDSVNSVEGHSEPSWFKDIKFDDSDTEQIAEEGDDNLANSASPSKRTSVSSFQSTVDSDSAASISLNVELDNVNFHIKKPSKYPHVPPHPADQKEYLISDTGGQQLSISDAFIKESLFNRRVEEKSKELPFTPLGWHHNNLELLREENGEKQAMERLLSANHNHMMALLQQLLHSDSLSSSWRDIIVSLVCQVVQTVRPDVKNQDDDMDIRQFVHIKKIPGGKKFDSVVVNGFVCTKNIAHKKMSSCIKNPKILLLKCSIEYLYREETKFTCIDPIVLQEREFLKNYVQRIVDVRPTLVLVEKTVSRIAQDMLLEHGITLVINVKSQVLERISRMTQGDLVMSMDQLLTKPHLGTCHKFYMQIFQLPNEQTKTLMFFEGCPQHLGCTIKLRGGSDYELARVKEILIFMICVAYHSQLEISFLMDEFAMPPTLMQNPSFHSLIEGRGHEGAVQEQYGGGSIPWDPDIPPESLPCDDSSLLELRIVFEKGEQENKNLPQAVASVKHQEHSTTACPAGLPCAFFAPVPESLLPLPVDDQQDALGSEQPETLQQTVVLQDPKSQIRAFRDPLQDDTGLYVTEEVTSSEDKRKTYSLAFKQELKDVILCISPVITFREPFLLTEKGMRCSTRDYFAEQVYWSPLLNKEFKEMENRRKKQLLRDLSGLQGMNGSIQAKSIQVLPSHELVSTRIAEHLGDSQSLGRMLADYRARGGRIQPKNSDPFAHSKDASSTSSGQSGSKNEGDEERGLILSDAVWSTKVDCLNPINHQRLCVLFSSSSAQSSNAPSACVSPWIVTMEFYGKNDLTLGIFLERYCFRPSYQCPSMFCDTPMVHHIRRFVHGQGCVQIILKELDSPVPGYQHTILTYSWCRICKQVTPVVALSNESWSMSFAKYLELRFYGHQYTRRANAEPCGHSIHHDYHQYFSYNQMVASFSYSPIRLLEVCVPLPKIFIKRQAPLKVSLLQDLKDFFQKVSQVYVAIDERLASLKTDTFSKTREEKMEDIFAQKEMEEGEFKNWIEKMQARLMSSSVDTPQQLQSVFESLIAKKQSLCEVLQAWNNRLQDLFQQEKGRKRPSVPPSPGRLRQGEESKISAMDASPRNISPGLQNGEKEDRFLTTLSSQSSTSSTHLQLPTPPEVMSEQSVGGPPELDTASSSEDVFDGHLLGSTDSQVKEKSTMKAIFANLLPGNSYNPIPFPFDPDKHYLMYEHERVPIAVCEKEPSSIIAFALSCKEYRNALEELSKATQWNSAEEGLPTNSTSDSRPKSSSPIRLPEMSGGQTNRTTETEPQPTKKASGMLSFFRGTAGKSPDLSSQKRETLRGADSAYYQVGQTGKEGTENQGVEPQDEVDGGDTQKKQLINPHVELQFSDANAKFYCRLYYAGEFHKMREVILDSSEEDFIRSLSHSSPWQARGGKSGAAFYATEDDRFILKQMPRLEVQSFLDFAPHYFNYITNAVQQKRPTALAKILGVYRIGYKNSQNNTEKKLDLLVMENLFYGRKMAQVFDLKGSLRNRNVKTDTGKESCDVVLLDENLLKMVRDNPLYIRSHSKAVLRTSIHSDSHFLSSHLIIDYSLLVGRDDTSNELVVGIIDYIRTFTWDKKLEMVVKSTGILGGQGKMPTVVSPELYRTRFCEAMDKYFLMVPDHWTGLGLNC
# Experiment: KINOMEscan Kinase Assay (Eurofins), PIKFYVE inhibitory activity
# Type: binding
# Setup conditions: KINOMEscan
pIC50: −log10 of the molar value.
Answer each item with its documented pIC50.

Take a look at these entries with their results.
Molecule: Cc1cccc(-c2ccn(-c3nc(N4CCOCC4)c4sc(CN5CCC(N6CCC6)C(F)C5)cc4n3)n2)c1 (stereo not shown)
pIC50: > 9.00

Molecule: Cc1cccc(-c2ccn(-c3nc(N4CCOCC4)c4sc(CN5CCN(S(C)(=O)=O)CC5)cc4n3)n2)c1
pIC50: > 9.00

Molecule: Cc1cccc(-c2ccn(-c3nc(N4CCOCC4)c4sc(CN5CC(N(C)C)C5)cc4n3)n2)c1
pIC50: > 9.00

Attention now shifts to the item below.
Look at this molecule and give its reported pIC50. Cc1cccc(-c2ccn(-c3cc(N4CCOCC4)c4nc(CN5CCC(N(C)C)C(F)C5)[nH]c4n3)n2)c1 (stereo not shown)
> 9.00

* * *

# Experiment: in vitro
# Setup conditions: African green monkey
Readout label: CC50

Look at this compound and give its reported CC50. `Cc1cccc(-c2ccn(-c3nc(N4CCOCC4)c4sc(CN5CCN(S(C)(=O)=O)CC5)cc4n3)n2)c1`
> 3000 µM

* * *

Answer each item with its documented IC50.
# System name: UniProt:Q9Y2I7

Molecule: Cc1cccc(-c2ccn(-c3nc(N4CCOCC4)c4nc(CN5CCC(N6CCC6)C(F)C5)[nH]c4n3)n2)c1 (stereo not drawn)
System name: UniProt:Q9Y2I7
Readout label: IC50
Readout value: < 1 nM

Molecule: Cc1cccc(-c2ccn(-c3cc(N4CCOCC4)c4nc(CN5CCOCC5)[nH]c4n3)n2)c1
System name: UniProt:Q9Y2I7
Readout label: IC50
Readout value: < 1 nM

Molecule: Cc1cccc(-c2ccn(-c3nc(N4CCOCC4)c4sc(C(=O)N5CC[C@@H](N(C)C)C5)c(C)c4n3)n2)c1
System name: UniProt:Q9Y2I7
Readout label: IC50
Readout value: 1 to 10 nM

Molecule: Cc1cccc(-c2ccn(-c3cc(N4CCOCC4)c4sc(CN5CCC(N(C)C)C(F)C5)cc4n3)n2)c1 (stereo not drawn)
System name: UniProt:Q9Y2I7
Readout label: IC50
Readout value: < 1 nM

Molecule: Cc1cccc(-c2ccn(-c3nc(N4CCOCC4)c4nc(CN5CCN(S(C)(=O)=O)CC5)[nH]c4n3)n2)c1
System name: UniProt:Q9Y2I7
Readout label: IC50
Readout value: < 1 nM

Batch: IC50 for all items listed.
1. Cc1cccc(-c2ccn(-c3nc(N4CCOCC4)c4nc(-c5cnn(C)c5)[nH]c4n3)n2)c1
2. Cc1cccc(-c2ccn(-c3nc(N4CC5CC4CO5)c4sc(CN5CCN(S(C)(=O)=O)CC5)cc4n3)n2)c1 (stereo not drawn)
3. Cc1cccc(-c2ccn(-c3nc(N4CCOCC4)c4sc(C(C)N5CCN(S(C)(=O)=O)CC5)cc4n3)n2)c1 (stereo not drawn)

1: < 1 nM; 2: 10 to 100 nM; 3: 1 to 10 nM
